These entries and their values trace back to patent US5985836A.

target: A1PI (Homo sapiens, UniProt P01009); construct: Human plasma is currently the only approved source of therapeutic AlPI; test: A1PI binding on peptide-resin column, injection of 1 mg A1PI in equilibration buffer; details: Trp position mutations; 1 mg A1PI, 20° C.
Sequence (P01009 25-418): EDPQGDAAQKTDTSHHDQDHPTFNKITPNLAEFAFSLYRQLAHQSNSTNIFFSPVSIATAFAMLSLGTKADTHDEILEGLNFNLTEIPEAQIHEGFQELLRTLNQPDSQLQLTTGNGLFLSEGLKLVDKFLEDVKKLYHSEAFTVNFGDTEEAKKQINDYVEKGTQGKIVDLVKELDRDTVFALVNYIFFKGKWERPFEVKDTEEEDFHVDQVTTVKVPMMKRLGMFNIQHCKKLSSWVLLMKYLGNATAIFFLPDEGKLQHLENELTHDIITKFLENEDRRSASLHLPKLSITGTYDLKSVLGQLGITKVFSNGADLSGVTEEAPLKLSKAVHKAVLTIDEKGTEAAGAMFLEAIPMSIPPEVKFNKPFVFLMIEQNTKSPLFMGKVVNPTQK
Ends that are not written are not given here.
Cut-off 60% on % of Total A1PI Eluted by Fraction (Based on Absorbance at 280 nm), 2% Acetic Acid, inclusive. At or above means Satisfied; below means Not satisfied.

| Substance | Answer Label |
| --- | --- |
| V I A L V R: VIWLVR with Trp at position 3 replaced by Ala (VIALVR) | Not satisfied |
| V I R L V R: VIWLVR with Trp at position 3 replaced by Arg (VIRLVR) | Not satisfied |
| VIFLVR | Satisfied |
| VIYLVR: VIWLVR with Trp at position 3 replaced by Tyr | Satisfied |
| VIWLVR | Satisfied |
| V I N L V R: VIWLVR with Trp at position 3 replaced by Asn (VINLVR) | Satisfied |
| V I S L V R: VIWLVR with Trp at position 3 replaced by Ser (VISLVR) | Not satisfied |
| V I D L V R: VIWLVR with Trp at position 3 replaced by Asp (VIDLVR) | Not satisfied |
